# Method Description: yeast display, Sf9 membrane polyspecificity reagent, FACS + sequencing; frameworks hold sequencing errors
Property Label: polyreactivity (PSR sort gate)

Known polyreactivity (PSR sort gate) results, listed for orientation:
{"columns": ["Seq", "Value Observed"],
 "data": [
  ["QVQLVESGGGLVQAGGSLRLSCAASGSTFDYYAMGWYRQAPGKERELVAAISRSGGRTYYADSVKGRFTISRDNAKNTVYLQMNSLKPEDTAVYYCAADKPVIGTYSRYDYWGQGTQVTVSS", "high polyreactivity"],
  ["QVQLEESGGGLVQAGGRLRLSCAASGGTFRNNAMGWDRQAPGKEREVVAAISSSGTSTYYADSVKGRFTISRDNAKNTVYLQMNSLKPEDTAVYYCNADALGYPWWDHMDYWGQGTQVTVSS", "low polyreactivity"],
  ["QVQLVESGGGLVQAGGSLRLSCAASGITYVSNAMGWYRQAPGKERELFAANTRRGTSTYYADSVKGRFTLSRDNAKNTVYLQMNSLKPVDTAVYYCNKVWKYSSSGFGKEVYGYDYWGQGTQVTVSS", "high polyreactivity"],
  ["QVQLVESGGGLVQAGGSLRLSCAASGFTFTYYAMGWYRQAPGKERELVAGITRSGGSTYYADSVKGRFTISRDNAKNTVYLHMNSLKPEDTAVYYCAAVGSLYYYRYDYWGQGTQVTVSS", "high polyreactivity"],
  ["QVQLVESGGGLVQAGGSLRLSCAASGFTFFSYAMGWYRQAPGKERELVAAISWSGGTTYYADSVKGRFTISRDNAKNTDYLQMNSLKPEDTAVYYCAAGPFSYSHYGRKFYYWGQGTQVTVSS", "high polyreactivity"]
]}

`QVQLVESGGGLVQAGGSLRLSCAASGSIFAVNTMGWYIQAPGKERELVAAISQRGSSTYYADSVKGRFTISRDNAKNTVYLQMNSLKPEDTAVYYCAKRFIYGRYNYWGQGTQVTVSS` has a reported polyreactivity (PSR sort gate) of high polyreactivity

Just so you know, measured polyreactivity (PSR sort gate) for `QVQLVESGGGLVQAGGSLLLSCAASGLTFYPNAMGWYRQAPGKERELVAAISSSGDSTYSADSVKVRFTISRDNAKNTVYLQMNSLKPEDTAVYYCAADLGYYNARWYEYWGQGTQVTVSS` came out at high polyreactivity

// polyreactivity (PSR sort gate) lookup, sequence = `QVQLVESGGGLVQAGGSLRLSCAASGSTFRTNVMGWYRQAPGKERELVAAITKRGSITYYADSVKGRFTISRDNAKNTVYFQMNSLKPEDTAVYYCAARKVAVGGYGYWGQGTQVTVSS` , result: high polyreactivity

Input `QVQRVESGGGLVQAGGSLRLSCAASGGIFDRYAMGWYRPAPGKERELVAVISGSVNTYADSVKGRFTISRDNAKNTVYLQMNSLKPEDTAVYYCATQFEGPSGFNYWGQGTQVTVSS` . Output polyreactivity (PSR sort gate): low polyreactivity

For reference, reported polyreactivity (PSR sort gate) for `QVQLVESGGGLVQAGGSLRLSCASSGSTFVSYAMGWYRQAPGKERELVAGISWSGTRTYYADSVKGRFTISRDNAKNTVYLQMNSLKPEDTAVYYCAALDSSYNWYGYWGQGTQVTVSS` stands at high polyreactivity

In plain terms, `QVQLVESGGGLVQAGGSLRLSCAASGSTFSINAMGWYRQAPGKERELVAAISWRGSGTYYADSVKGRFTISRDNAKNTVYLQMNSLKPEDTAVYYCAAEWDRPLYYPWYVEYDYWGQGTQVTVSS` has a documented polyreactivity (PSR sort gate) of high polyreactivity
